Kindly supply the reported Proliferation test cpm values for the records listed here.
tested on: LEUKEMIA K 562; test: Vitality/proliferation test (Tritium), leukemia K 562; assay type: cell-based, human; settings: 10^-4; controls 50'037 cpm
Numbers only, in cpm.

>  <COMPOUND>
CC(=O)O[C@H]1C(=O)[C@@]2(C)[C@H]([C@H](OC(=O)c3ccccc3)[C@]3(O)C[C@H](O)C(C)=C1C3(C)C)[C@]1(OC(C)=O)CO[C@@H]1C[C@@H]2O [BACCATIN III-A.S., Baccatin-III]

>  <QUANTITATIVE RESULT>
757

$$$$
>  <COMPOUND>
CCCCCCCCCCCC(=O)O[C@H]1C[C@@]2(O)[C@@H](OC(=O)c3ccccc3)[C@@H]3[C@]4(OC(C)=O)CO[C@@H]4C[C@H](OC(=O)CCCCCCCCCCC)[C@@]3(C)C(=O)[C@H](OC(C)=O)C(=C1C)C2(C)C [BACCATIN III-DI-LAURATE, 7,13-Dilauroylbaccatin-III]

>  <QUANTITATIVE RESULT>
651

$$$$
>  <COMPOUND>
C=CCCCCCCCCC(=O)O[C@H]1C[C@@]2(O)[C@@H](OC(=O)c3ccccc3)[C@@H]3[C@]4(OC(C)=O)CO[C@@H]4C[C@H](OC(=O)CCCCCCCCC=C)[C@@]3(C)C(=O)[C@H](OC(C)=O)C(=C1C)C2(C)C [BACCATIN III-DI-UNDECENOATE, 7,13-Baccatin-III-diundecenoate]

>  <QUANTITATIVE RESULT>
665

$$$$

Next, consider the following compound.
[in] Returns the measured Proliferation test cpm for the input compound. Input: CC(=O)O[C@H]1C(=O)[C@@]2(C)[C@H]([C@H](OC(=O)c3ccccc3)[C@]3(O)C[C@H](OC(=O)[C@H](O)[C@@H](NC(=O)c4ccccc4)c4ccccc4)C(C)=C1C3(C)C)[C@]1(OC(C)=O)CO[C@@H]1C[C@@H]2O [TAXOL-A.S., Taxol (Paclitaxel), reference compound]
[out] 830

====

system: Py6 cells (Virus transformed 3T3 mouse-fibroblasts); assay: Test of cell toxicity / cytotoxicity of MARIGENOL concentrates on Py6 cells (plaque assay, serial dilution); format: cell-based; settings: 48 h exposure; calculated on A.S.
ENDPOINT NAME: in dilution active up to 1: (calculated on active substance content, A.S.)
Answer format: number, then unit.

In the examples that follow, each entry is paired with its recorded in dilution active up to 1: (calculated on active substance content, A.S.).
>  <MOLECULE>
CCCCCCCCCCCC(=O)Oc1ccc(-c2oc3cc(OC(=O)CCCCCCCCCCC)cc(OC(=O)CCCCCCCCCCC)c3c(=O)c2OC(=O)CCCCCCCCCCC)c(OC(=O)CCCCCCCCCCC)c1 [MORIN-PENTA-LAURATE]

>  <RESULT>
100 Mio.

$$$$
>  <MOLECULE>
CC(=O)O[C@H]1C(=O)[C@@]2(C)[C@H]([C@H](OC(=O)c3ccccc3)[C@]3(O)C[C@H](OC(=O)[C@H](O)[C@@H](NC(=O)c4ccccc4)c4ccccc4)C(C)=C1C3(C)C)[C@]1(OC(C)=O)CO[C@@H]1C[C@@H]2O [TAXOL-A.S., Taxol (Paclitaxel), reference compound]

>  <RESULT>
25.6 Mio.

$$$$
>  <MOLECULE>
CCCCCCCCCCCCCCCC(=O)Oc1cc(OC(=O)CCCCCCCCCCCCCCC)c2c(=O)cc(-c3ccccc3)oc2c1 [CHRYSIN-DI-PALMITATE]

>  <RESULT>
51.2 Mio.

$$$$
>  <MOLECULE>
C=CCCCCCCCCC(=O)Oc1cc(OC(=O)CCCCCCCCC=C)c2c(=O)c(OC(=O)CCCCCCCCC=C)c(-c3ccc(OC(=O)CCCCCCCCC=C)c(OC(=O)CCCCCCCCC=C)c3)oc2c1 [QUERCETIN-PENTA-UNDECENOATE, Quercetin-penta-10-undecenoate]

>  <RESULT>
100 Mio.

$$$$
>  <MOLECULE>
CCCCCCCCCCCCCCCC(=O)Oc1ccc(-c2oc3cc(OC(=O)CCCCCCCCCCCCCCC)cc(OC(=O)CCCCCCCCCCCCCCC)c3c(=O)c2OC(=O)CCCCCCCCCCCCCCC)c(OC(=O)CCCCCCCCCCCCCCC)c1 [MOREN-PENTA-PALMITATE]

>  <RESULT>
51.2 Mio.

$$$$

Would you be so kind as to report in dilution active up to 1: (calculated on active substance content, A.S.) for each listed record?
1. CCCCCCCCCCCC(=O)Oc1cc(OC(=O)CCCCCCCCCCC)c2c(=O)cc(-c3ccccc3)oc2c1 [CHRYSIN-DI-LAURATE]
2. C=CCCCCCCCCC(=O)O[C@H]1C[C@@]2(O)[C@@H](OC(=O)c3ccccc3)[C@@H]3[C@]4(OC(C)=O)CO[C@@H]4C[C@H](OC(=O)CCCCCCCCC=C)[C@@]3(C)C(=O)[C@H](OC(C)=O)C(=C1C)C2(C)C [BACCATIN III-DI-UNDECENOATE, 7,13-Baccatin-III-diundecenoate]

[out]
1. 51.2 Mio.
2. 25.6 Mio.

Would you be so kind as to report in dilution active up to 1: (calculated on active substance content, A.S.) for each listed record?
1. CCCCCCCCCCCC(=O)O[C@H]1C[C@@]2(O)[C@@H](OC(=O)c3ccccc3)[C@@H]3[C@]4(OC(C)=O)CO[C@@H]4C[C@H](OC(=O)CCCCCCCCCCC)[C@@]3(C)C(=O)[C@H](OC(C)=O)C(=C1C)C2(C)C [BACCATIN III-DI-LAURATE, 7,13-Dilauroylbaccatin-III]
2. CC(=O)O[C@H]1C(=O)[C@@]2(C)[C@H]([C@H](OC(=O)c3ccccc3)[C@]3(O)C[C@H](O)C(C)=C1C3(C)C)[C@]1(OC(C)=O)CO[C@@H]1C[C@@H]2O [BACCATIN III-A.S., Baccatin-III]

[out]
1. 12.8 Mio.
2. 12.8 Mio.

Reference source: patent US6057359A
